Measured values drawn from patent US20180009892A1 for this set.

# targetEntity: T1, ROR1 extracellular domain Fc fusion:Fc heterodimer, monomer (human)
# T1 construct: Heterodimer of one ROR1 ECD-Fc chain and one Fc chain; also called ROR1 monomer; hROR1 monomeric ECD-Fc fusion protein; not shown: Fc part; Fc alone
# T1 sequence (Q01973 30-406, one chain of several): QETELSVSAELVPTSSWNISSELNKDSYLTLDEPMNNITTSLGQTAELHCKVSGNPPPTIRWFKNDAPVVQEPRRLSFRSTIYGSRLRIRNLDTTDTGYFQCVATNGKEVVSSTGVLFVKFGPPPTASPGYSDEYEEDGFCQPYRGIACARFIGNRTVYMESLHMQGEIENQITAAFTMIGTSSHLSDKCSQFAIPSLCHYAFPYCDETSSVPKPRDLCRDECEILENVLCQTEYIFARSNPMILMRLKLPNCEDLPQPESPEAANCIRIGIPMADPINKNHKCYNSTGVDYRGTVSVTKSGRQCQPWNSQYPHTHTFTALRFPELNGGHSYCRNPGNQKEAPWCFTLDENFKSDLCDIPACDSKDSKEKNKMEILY
# protocolDescription: SPR, immobilised ROR1 monomer, antibody injected, 1:1 model
List of Kd values.
Record the value in nM, omitting the unit from your answer.

Here is how some binders turned out for Kd.
| binder | unitOfMeasure | resultValue |
| --- | --- | --- |
| Antibody 601-100 (antibody, V domains shown) VH: EVQLVQSGGGVVQPGGPLRLSCAASGFTFSSYSMNWVRQAPGKGLEWVSSISSSSSYIYYADSVKGRFTISRDNAKNSLYLQMNSLRAEDTAVYYCARGLGGWTHDAFDIWGQGTMVTVSS VL: QSALTQPASVSGSPGQSITISCTGTSRDVGGYDYVSWYQQYPGNAPKLMIYDVSRRPSGVSHRFSASKSGNTASLTISGLQTEDEADYYCSSYTSSSTRVFGGGTKVTVL | nM | 8.2 |
| Antibody 601-65 (antibody, V domains shown) VH: QVQLQQSGPGLVKPSQTLSLTCAISGDSVSSNSATWNWIRQSPSRGLEWLGRTYYRSKWYNDYAVSVKSRIIINPDTSKNQFSLQLNSVTPEDTAVYYCARGVRAFDIWGQGTTVTVSS VL: QSVLTQPPSVSGTPGQRVTIFCSGGSNNIGRSSVYWYRQAAGTAPKLLIYKTDQRPSGVPDRFAASKSGASASLAISGLRSEDEADYHCATWDDSLSAVVFGGGTKLTVL | nM | 6.6 |
| Antibody 601-147 (antibody, V domains shown) VH: QMQLVQSGAEVKKPGASVKVSCKASGYTFSRYYIHWVRQAPGQGLEWMGLINPGGGSTNYAQKFQGRVTMTRDTSTNTVYLELSSLRSDDTAVYYCARDYGTIDARRFDFWGQGTLVTVSS VL: QSALTQPPSASGTPGQRVTISCSGSSSNIGSNYVYWYQQLPGTAPKLLIYRNNQRPSGVPDRFSGSKSGTSASLAISGLRSEDEADYYCAAWDDSLSGYVFGTGTKVTVL | nM | 2.8 |
| Antibody 601-149 (antibody, V domains shown) VH: EAQLVESGGGLVKPGGSLRLSCAASGFTFSDYYMGWVRQAPGKGLKWLSYISDRAHTIYDTDSVKGRFTISRDDAKSSLYLRMNNLRVEDTAVYYCARAVGAGEGFDYWGQGTLVTVSS VL: DIQLTQSPSSLSASVGDRVTITCQASQDVRNYLNWYQQKPGKAPNLLIYDATNLESGVPSRFSGSGSGTDFTFTISSLQPEDFATYYCQQYDNLPLSFGGGTKVEIK | nM | 0.4 |

We now examine a further binder.
Per the records, this binder ( Antibody 601-119 (antibody, V domains shown) VH: QVQLVQSGGGLVKPGGSLRLSCAASGFTFGTYSMNWVRQAPGKGLEWVSSISSSSSYIYYADSVKGRFTISRDNAKNSLYLQMNSLRAEDTAVYYCARGLGGWTHDAFDIWGQGTTVTVSS VL: QSALTQPASVSASPGQSITISCTGTSSDVGGYNYVTWYQQHPGKAPKLMIYDVSKRPSGVLDRFSGSKSGNTASLTISGLQAEDEADYFCSSYTSSSTLVFGGGTKLTVLG ) has Kd equal to 407
